B1: CPEB3 Ribozyme (parent)
chain: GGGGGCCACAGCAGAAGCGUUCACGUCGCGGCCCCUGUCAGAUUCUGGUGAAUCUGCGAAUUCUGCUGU

# Variants of: B1
# procedure text: self-cleavage, relative activity (ratio to wild type); higher = more cleavage; co-transcriptional
measured property: self-cleavage
Give bare numbers.

Below, 2 variants whose answers are already recorded.
INSERT INTO measurements (variant_designation, obs_value) VALUES
  ('G25C C54A', 0.136),
  ('G17A C54U', 0.488);

List self-cleavage for every entry below, keeping the order given.
1. G2A G14U
2. U44C G50U
3. A51C G68C
4. G1A A59C
5. A15U A60G

0.0746
0.93
0.996
0.0603
0.416

Required: self-cleavage, one value per variant below.
1. C12U A52C
2. A51G U64A
3. A13G G68A
4. C6U A59C

0.903
0.991
1.01
0.586

Give self-cleavage for all variants that follow.
1. A51U C54U
2. A23G
3. C18U C29U
4. C24G G50A
5. G5A C7G

0.932
0.984
0.0827
0.392
0.0847

Please give self-cleavage, item by item, for the list that follows.
1. C57A U69G
2. G5C G14U

0.455
0.109
